assay type: in vivo, rat; details: PM/P (polyI:C+maoto vs polyI:C), 2h
readout_name: log2FC of plasma level

molecule="CCCCC/C=C\\C[C@H]1O[C@H]1C/C=C\\C/C=C\\CCCC(=O)O [11,12-EET]" readout_name="log2FC of plasma level" measured_number=-0.13
molecule="CC/C=C\\C/C=C\\C/C=C\\C=C\\C(O)C/C=C\\C/C=C\\CCC(=O)O (centres unmarked) [10-HDoHE]" readout_name="log2FC of plasma level" measured_number=-0.04
molecule="CCCCC/C=C\\C=C\\C(O)CCCCCCCC(=O)O (centres unmarked) [9-HODE]" readout_name="log2FC of plasma level" measured_number=-0.13
molecule="CCCCCC(=O)/C=C/C=C\\CCCCCCCC(=O)O [13-KODE]" readout_name="log2FC of plasma level" measured_number=-0.15
molecule="CC/C=C\\CC(O)/C=C/C=C\\C/C=C\\C/C=C\\C/C=C\\CCC(=O)O (centres unmarked) [17-HDoHE]" readout_name="log2FC of plasma level" measured_number=0.18

* * *

Test: Plasma PK of major maoto compounds by LC-MS/MS after oral administration of maoto
Assay type: in vivo, rat
Conditions: Sprague-Dawley, rat, plasma, po, 2 g/kg; read-out: Cmax
Description: 1 (7:00-19:00). Rats were maintained and used for the experiments in accordance 2 with the Guidelines for the Care and Use of Laboratory Animals of Tsumura & 3 CO. All experimental procedures were carried out upon approval from the 4 Laboratory Animal Committee of Tsumura & CO. 8 administered to 16-h fasted rats (n=3). […] 14 and 4 g/10mL/kg) were determined by LC-MS/MS. Based on a literature search, […] 1 Plasma PK data were analyzed by noncompartmental modeling using […]
readout_name: log10 Cmax (log10 of the value in ng/mL)

molecule="Oc1cc(O)c2c(c1)O[C@H](c1cc(O)c(O)c(O)c1)[C@H](O)C2 [Epigallocatechin]" readout_name="log10 Cmax" measured_number=-0.99
molecule=COc1c(CC=C(C)C)c(O)cc2oc(=O)c(-c3ccc(O)cc3O)cc12 readout_name="log10 Cmax" measured_number=-1.04
molecule=O=C(O)/C=C/c1ccccc1 readout_name="log10 Cmax" measured_number=3.11
molecule=CC1(C)[C@@H](O)CC[C@]2(C)[C@H]3C(=O)C=C4[C@@H]5C[C@@](C)(C(=O)O)CC[C@]5(C)CC[C@@]4(C)[C@]3(C)CC[C@@H]12 readout_name="log10 Cmax" measured_number=2.57
molecule="CC(C(O)c1ccccc1)N(C)C (racemic)" readout_name="log10 Cmax" measured_number=1.35
molecule=O=C1C[C@@H](c2ccc(O[C@@H]3O[C@H](CO)[C@@H](O)[C@H](O)[C@H]3O)cc2)Oc2cc(O)ccc21 readout_name="log10 Cmax" measured_number=0.86
molecule="Oc1cc(O)c2c(c1)O[C@H](c1ccc(O)c(O)c1)[C@H](O)C2 [Epicatechin]" readout_name="log10 Cmax" measured_number=0.29
molecule=O=C(/C=C/c1ccc(O)cc1)c1ccc(O)cc1O readout_name="log10 Cmax" measured_number=1.00

* * *

test: Plasma PK of major maoto compounds by LC-MS/MS after oral administration of maoto; format: in vivo, rat; settings: Sprague-Dawley, rat, plasma, po, 4 g/kg; read-out: Cmax
Cmax below 8 ng/mL gives Not fulfilled; Cmax at or above it gives Fulfilled.

compound=CC1(C)[C@@H](O)CC[C@]2(C)[C@H]3C(=O)C=C4[C@@H]5C[C@@](C)(C(=O)O)CC[C@]5(C)CC[C@@]4(C)[C@]3(C)CC[C@@H]12 class_label=Fulfilled
compound=N#C[C@H](O[C@@H]1O[C@H](CO[C@@H]2O[C@H](CO)[C@@H](O)[C@H](O)[C@H]2O)[C@@H](O)[C@H](O)[C@H]1O)c1ccccc1 class_label=Fulfilled
compound=Oc1cc(O)c2c(c1)O[C@H](c1ccc(O)c(O)c1)[C@H](O)[C@H]2c1c(O)cc(O)c2c1O[C@H](c1ccc(O)c(O)c1)[C@H](O)C2 class_label="Not fulfilled"
compound=CN[C@@H](C)[C@H](O)c1ccccc1 class_label=Fulfilled
compound=N#C[C@H](O[C@@H]1O[C@H](CO)[C@@H](O)[C@H](O)[C@H]1O)c1ccccc1 class_label=Fulfilled
compound="Oc1cc(O)c2c(c1)O[C@H](c1ccc(O)c(O)c1)[C@H](O)C2 [Epicatechin]" class_label=Fulfilled
compound=COc1cc2ccc(=O)oc2cc1O class_label="Not fulfilled"
compound=O=C(/C=C/c1ccc(O)cc1)c1ccc(O)cc1O class_label="Not fulfilled"
compound=COc1c(CC=C(C)C)c(O)cc2oc(=O)c(-c3ccc(O)cc3O)cc12 class_label="Not fulfilled"
